ENDPOINT_LABEL: melting point

Reference set (6 entries):
| MOLECULE | melting point |
| --- | --- |
| NC1=Nc2ccccc2CC1 | 135 to 136 °C |
| COc1cccc2nc(-c3ccc4c(c3)NC(=O)C4(C)C)[nH]c12 | 222 to 225 °C |
| CSC(=S)NN=Cc1c[nH]cn1 | 259 to 261 °C |
| O=C(O)c1cc(N=Cc2ccccc2)ccc1O | 213 to 215 °C |
| O=c1c2c(Cc3ccccc3OC(F)(F)F)n[nH]c2c2cccnc2n1-c1cccc(C(F)(F)F)c1 | 247 to 252 °C |
| O=C(O)CCc1cn(Cc2ccc(OCc3cccnc3)cc2)nc1OCc1cccnc1 | 116 to 117 °C |

Field melting point (entry `O=[N+]([O-])c1cc(O)c(OCCOCCO)cc1[N+](=O)[O-]` ) reads 135 °C

Field melting point (entry `CCCC(=O)NCCN1CCOc2ccc(OC)cc21` ) reads 73 to 74 °C

Field melting point (entry `Cc1ccc(N2C(=O)N(CC(=O)O)C(=O)C23CCCCC3)cc1` ) reads 206 °C

Field melting point (entry `O=C1CCCN1C(=O)Oc1ccc(F)cc1` ) reads 89 to 90 °C

Field melting point (entry `COc1ccccc1NC(=O)Nc1nc2c(s1)CN(C)CC2` ) reads 201 to 203 °C

Field melting point (entry `Cc1cc(-c2noc3cc(O)ccc23)ccc1O` ) reads 233 to 235 °C

Field melting point (entry `CC(C)(CCl)C(=O)NO` ) reads 148 to 151 °C

###

Measured melting point by item

| COMPOUND | ENDPOINT_LABEL | READOUT_VALUE |
| --- | --- | --- |
| COc1ccc(COc2cc(N)c(Cl)cc2C(=O)CCCCN2CCCCC2)cc1OC | melting point | 120 to 122 °C |

Field melting point (entry `CC(=O)Nc1ccc(Cl)cc1C(=O)c1ccccc1` ) reads 114 °C

Field melting point (entry `Cc1ccc(C(=O)NC#N)cc1` ) reads 140 to 142 °C

Field melting point (entry CNc1nn(C(=O)NC(C)CCc2ccccc2Cl)c(=O)n1C (centres undefined) ) reads 133 to 135 °C

###

ENDPOINT_LABEL: melting point (°C)

a = Clc1ccccc1COc1c(Cl)cc(OCC=C(Br)Br)cc1Cl
b = COc1cccc2c1[C@@H](Oc1cc(C(=O)N(C)C)cn3c(C)c(C)nc13)[C@H](O)C2 (relative stereo)
Between a and b , which one shows the smaller melting point number? Let me know the label of the one you choose. a

###

Measured melting point by item
Structures can show the parent of a compound that is named as a salt. Residues, ends and D or L forms follow the SMILES beside them. *: point of attachment. Tfa = O=C(C(F)(F)F)*

| COMPOUND | READOUT_VALUE |
| --- | --- |
| C=C(CN(C)C)C(O)c1ncc2c(c1O)COC2c1cccc(Cl)c1Cl (stereo not drawn) | 180 to 184 °C |
| CC(C)C(NC(=O)OC(C)(C)C)C(=O)NC(C(=O)OC1CC(n2cc(C=CBr)c(=O)[nH]c2=O)OC1CN=[N+]=[N-])C(C)C (stereo not drawn) | 133 to 135 °C |
| COC(=O)C(Cc1ccccc1)NC(=O)C(CC(=O)O)NC(=O)C(F)(F)F (stereo not drawn) (Tfa-Asp-Phe-OMe; configuration not given here) | 150 to 151 °C |
| COc1ccccc1CN[C@H]1CCCN(CCCCCCc2ccccc2)[C@H]1c1ccccc1 (relative stereo) | 48 to 53 °C |
| COCC(=O)N(c1c(C)ccc2ccccc12)C(CCO)C(=O)OC (stereo not drawn) | 132 to 137 °C |

Field melting point (entry `CS(=O)(=O)OCc1cn(-c2ccc(N3CCOCC3)c(F)c2)nn1` ) reads 158 °C

Field melting point (entry `COCCOCCOc1cc(OC)c(-c2cccs2)cc1/C=C/C(=O)c1ccc(C(=O)O)cc1` ) reads 145 to 146 °C

Field melting point (entry `CCOC(=O)c1cc2cccc(N(C)C(=O)c3cccs3)c2[nH]1` ) reads 193 °C

###

Measured melting point by item

Field melting point (entry `CC(=O)N(C(C)=O)c1c(C#N)cnn1-c1c(F)cc(F)c(F)c1F` ) reads 132 to 134 °C

Field melting point (entry `NCc1[nH]c2cc(Br)c(Cl)cc2c1-c1ccccc1` ) reads 162 to 163 °C

Field melting point (entry `Cn1cc(C2=C(c3cn(CCCN)c4ccccc34)C(=O)NC2=O)c2ccccc21` ) reads 195 to 197 °C

Field melting point (entry Cc1ccc2c(c1)C1CN(CCCC#N)CCC1N2 (stereo not given) ) reads 160 to 165 °C

Field melting point (entry `Cc1nc[nH]c1CSCCNc1nc(C)c(-c2ccccc2)c(=O)[nH]1` ) reads 216 to 218 °C

Field melting point (entry `CCN(CC)CC(=O)c1cc(C(=O)c2ccc3ccccc3c2)cn1C` ) reads 130 to 132 °C

Field melting point (entry `O=c1cc(NCCN2CCN(c3ccccc3)CC2)cn[nH]1` ) reads 147 to 149 °C

Field melting point (entry O=C(Nc1cnccn1)Nc1cccc2c1C1CCCCN1C2=O (stereo not given) ) reads 215 °C

Field melting point (entry `O=CCC[C@@H]1[C@@H](OCc2ccc(-c3ccccc3)cc2)CO[C@@H]1c1cccnc1` ) reads 204 to 205 °C

Field melting point (entry `N#Cc1ccc(O)c(NC(=O)C(=O)O)c1` ) reads > 300 °C

###

Measured melting point by item

Reference set (5 entries):
| MOLECULE | melting point |
| --- | --- |
| O=C(O)c1cccc2nnsc12 | 239 to 240 °C |
| CC(C)(C)c1ccc(C(=O)NCc2ccc3c(c2)CN(C2CCC(=O)NC2=O)C3=O)cc1 (stereo not given) | 238 to 240 °C |
| CCCCCCOc1nc(N)nc2c1ncn2C1C=CC(CO)C1 (stereo not given) | 90 to 92 °C |
| COc1ccc(C(O)Cc2c(Cl)cncc2Cl)c2c1OC(C)(C)C2 (stereo not given) | 100 to 104 °C |
| O=c1ccc(S(=O)(=O)c2cc3ccccc3o2)n[nH]1 | 210 to 211 °C |

Field melting point (entry `NS(=O)(=O)c1ccsc1` ) reads 187 to 190 °C

Field melting point (entry `COC(=O)CCC(=O)c1ccc(Br)cc1` ) reads 49 to 51 °C

Field melting point (entry `COc1ccc(-c2nc(-c3cccnc3)c(C)n2C)c(OC)c1` ) reads 129 to 131 °C

Field melting point (entry `FC(F)Oc1n[nH]cc1-c1ccccc1` ) reads 125 °C

Field melting point (entry `COCCN1CCc2ccc(Nc3ncc(Cl)c(Nc4ccccc4C(=O)NC4CC4)n3)cc2CC1` ) reads 165 to 180 °C

###

Measured melting point by item

Reference set (3 entries):
| COMPOUND | melting point |
| --- | --- |
| COc1ccc(S(=O)(=O)N2c3ccccc3-c3ccccc3C2C)cc1OC (stereo not given) | 131 to 133 °C |
| COc1cc(NC(=O)CCCCCN2CCNCC2)c2nccc(C)c2c1 | 122 to 124 °C |
| Cn1cc(C2=C(c3c4n(c5ccccc35)CC3CN(C(=O)OC(C)(C)C)CC3C4)C(=O)OC2=O)c2ccccc21 (stereo not given) | 265 to 266 °C |

Field melting point (entry `CC(CO)(CO)C(=O)OCc1ccccc1` ) reads 71.6 to 72.8 °C

Field melting point (entry `NP(N)(=O)c1ccccc1` ) reads 187 to 191 °C

Field melting point (entry `Cc1cc(Cc2cc(C)c(N=C=O)c(C)c2)cc(C)c1N=C=O` ) reads 130 to 131 °C

Field melting point (entry `C#CCN(Cc1cc2c(=O)n(C)c(CN3CCC(O)CC3)nc2cc1Cl)c1ccc(C(=O)OC(C)(C)C)cc1` ) reads 208 to 210 °C

Field melting point (entry `Nc1cc(C=C2OC(=O)c3ccccc32)ccc1Cl` ) reads 148 to 153 °C

###

ENDPOINT_LABEL: melting point

Field melting point (entry `CCCc1c(OCCCCCC(=O)c2cc(O)c(O)cc2F)ccc(C(=O)O)c1O` ) reads 193 to 195 °C

Field melting point (entry `COc1ccc(C[C@]2(C)C(=O)O[C@@H](c3ccccc3)N2C(=O)c2ccccc2)cc1` ) reads 128 to 129 °C

Field melting point (entry `COc1c([N+](=O)[O-])cc(C(C)(C)C)cc1[N+](=O)[O-]` ) reads > 75 °C

Field melting point (entry O=C1Nc2ccccc2OC1c1ccccc1 (centres undefined) ) reads 146 °C

Field melting point (entry C#Cc1ccc(C(CC2CCCC2)C(=O)O)cc1 (centres undefined) ) reads 80 to 83 °C

Field melting point (entry `Oc1ccccc1[C@@H]1C[C@H]2C=C(c3c[nH]c(-c4ccc(F)cc4)c3-c3ccncc3)CCN2C1` ) reads 195 to 196 °C

Field melting point (entry `COc1cc(COc2cc(N)c(Cl)cc2C(=O)CCCCN2CCC(C)(C)CC2)cc(OC)c1` ) reads 135 to 136 °C

Field melting point (entry `COc1nc(C)cnc1NS(=O)(=O)c1cccnc1-c1ccc(C=CC(=O)O)cc1` ) reads 233 to 235 °C

Field melting point (entry `CS(=O)(=O)Cc1cc(Br)ccc1C(=O)c1cnoc1C1CC1` ) reads 154 °C

Cited source: a melting point compilation (Tetko et al.; mined from patent text by program, amines drawn as free bases though some values may be those of a salt)
